# PROTOCOL NOTES: Pharmacokinetic evaluation in rats
# Type: in vivo
# DETAILS: Sprague-Dawley, rat, serum; male SD rats, single oral dose 3 mg/kg, in 30% PEG400; read-out: area under the curve (AUC0-∞)
READOUT NAME: AUC(0-inf) (ng·h/mL)
Give bare numbers, in ng·h/mL.

| COMPOUND | UNITS TEXT | RECORDED NUMBER |
| --- | --- | --- |
| [2H]C([2H])([2H])NC(=O)c1cc(Oc2ccc(NC(=O)Nc3ccc(Cl)c(C(F)(F)F)c3)cc2)ccn1 | ng·h/mL | 11300 |

Let us move to another entry and its AUC(0-inf).
Could you please provide reported AUC(0-inf) for CNC(=O)c1cc(Oc2ccc(NC(=O)Nc3ccc(Cl)c(C(F)(F)F)c3)cc2)ccn1 [CM4306, reference compound] ? Thanks!
7330

# credit: patent US20130012548A1
